The binders listed here are annotated with their glycan array binding signal (z-score).
Molecular target: GalNAc(b1-4)GlcNAc(b1-2)Man(a1-3)[GalNAc(b1-4)GlcNAc(b1-2)Man(a1-6)]Man(b1-4)GlcNAc(b1-4)GlcNAc
Assay: glycan array binding signal (z-score within array); higher = stronger binding
Settings: glycan notation: IUPAC condensed, linker removed
The entries come from a sample that favours the strongest signals as a whole.
Experimental Readout: glycan array binding signal (z-score)

{"columns": ["Binder", "Experimental Readout", "Numeric Result"],
 "data": [
  ["StdA (Salmonella typhimurium), Q8Z3Z0 (protein) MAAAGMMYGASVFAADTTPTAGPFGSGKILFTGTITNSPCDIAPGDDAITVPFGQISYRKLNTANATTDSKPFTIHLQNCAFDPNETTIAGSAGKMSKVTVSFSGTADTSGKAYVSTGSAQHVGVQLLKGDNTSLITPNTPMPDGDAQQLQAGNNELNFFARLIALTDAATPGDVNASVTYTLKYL", "glycan array binding signal (z-score)", 3.5],
  ["SLP (Clostridium difficile), Q183M8 (protein) MATTGTQGYTVVKNDWKKAVKQLQDGLKDNSIGKITVSFNDGVVGEVAPKSANKKADRDAAAEKLYNLVNTQLDKLGDGDYVDFSVDYNLENKIITNQADAEAIVTKLNSLNEKTLIDIATKDTFGMVSKTQDSEGKNVAATKALKVKDVATFGLKSGGSEDTGYVVEMKAGAVEDKYGKVGDSTAGIAINLPSTGLEYAGKGTTIDFNKTLKVDVTGGSTPSAVAVSGFVTKDDTDLAKSGTINVRVINAKEESIDIDASSYTSAENLAKRYVFDPDEISEAYKAIVALQNDGIESNLVQLVNGKYQVIFYPEGKRLETKSLEHHHHHH", "glycan array binding signal (z-score)", 6.19]
]}
